# Study target: 5-hydroxytryptamine receptor 2C (Homo sapiens)
# Sequence (P28335 whole entry): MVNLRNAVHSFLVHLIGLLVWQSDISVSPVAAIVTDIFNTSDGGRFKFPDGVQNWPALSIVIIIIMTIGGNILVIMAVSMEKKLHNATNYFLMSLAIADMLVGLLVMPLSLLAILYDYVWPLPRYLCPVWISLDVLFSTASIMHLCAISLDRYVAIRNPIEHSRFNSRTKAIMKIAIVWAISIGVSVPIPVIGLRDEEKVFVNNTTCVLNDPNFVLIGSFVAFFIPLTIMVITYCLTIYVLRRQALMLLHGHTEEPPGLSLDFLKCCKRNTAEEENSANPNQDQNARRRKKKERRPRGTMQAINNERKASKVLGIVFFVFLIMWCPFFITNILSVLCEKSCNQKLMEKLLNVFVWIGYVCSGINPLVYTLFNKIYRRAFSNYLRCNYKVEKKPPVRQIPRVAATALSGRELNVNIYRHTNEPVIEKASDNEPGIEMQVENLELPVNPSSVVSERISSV
# Assay comment: Antagonist activity at human 5HT2C receptor expressed in human SHSY5Y cells by FLPR assay
pKi: −log10 of the molar value.
Endpoint name: pKi

Known results for molecules:
[
  {
    "Molecule": "O=C(O)CCN1CCN(C2=Cc3ccccc3Cn3ccnc32)CC1",
    "Endpoint value": "< 6.10"
  },
  {
    "Molecule": "O=C(O)C1CCC(N2CCN(C3=Cc4ccccc4Cn4ccnc43)CC2)CC1 (single isomer, unassigned; isomer 1)",
    "Endpoint value": "< 5.70"
  },
  {
    "Molecule": "O=C(O)C1CC(N2CCN(C3=Cc4ccccc4Cn4ccnc43)CC2)C1 (stereo in doubt; 13)",
    "Endpoint value": "< 6.10"
  }
]

Problem: Hello, please tell me recorded pKi for this one: CC(C)(CN1CCCN(C2=Cc3ccccc3Cn3ccnc32)CC1)C(=O)O
Result: < 5.70
